Molecular target: Cytochrome P450 2C19 (Homo sapiens) (UniProt P33261)
Sequence (P33261 whole entry, looked up): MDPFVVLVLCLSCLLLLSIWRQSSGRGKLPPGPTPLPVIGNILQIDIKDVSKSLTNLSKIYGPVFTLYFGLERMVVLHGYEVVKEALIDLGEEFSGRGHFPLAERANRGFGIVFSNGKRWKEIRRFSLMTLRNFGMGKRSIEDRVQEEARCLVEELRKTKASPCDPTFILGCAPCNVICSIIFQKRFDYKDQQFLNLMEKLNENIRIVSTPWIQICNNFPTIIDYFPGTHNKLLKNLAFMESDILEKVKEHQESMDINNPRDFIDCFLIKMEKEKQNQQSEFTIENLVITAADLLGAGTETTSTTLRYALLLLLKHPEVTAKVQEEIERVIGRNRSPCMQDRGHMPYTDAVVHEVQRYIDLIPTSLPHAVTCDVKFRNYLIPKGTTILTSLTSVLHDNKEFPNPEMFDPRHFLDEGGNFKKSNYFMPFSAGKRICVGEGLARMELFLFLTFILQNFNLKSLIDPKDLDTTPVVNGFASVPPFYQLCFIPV
Assay: Cytochrome P450 Family 2 Subfamily C Member 19 (CYP2C19) small molecule antagonists: luciferase reporter qHTS assay (AID 1671197); also: % is scaled to controls: 0 for no effect and ±100 for the full control effect; nearly all actives have a fitted effect of over 65% in size
Conditions: P450-Glo CYP2C19 enzyme, luciferin luminescence, 1 h; series mostly up to 115 µM
Records with an inconclusive call do not appear. The source made the active and inactive calls. Calls follow the shape of the dose curve; as a rule, active = well fitted inhibition curve with a large enough effect in the repeat runs; inconclusive = weak or mixed curves; inactive = no such curve, though single readings can be large or run the other way.
value.kind: activity change, negative = inhibition

Would you please look over these solved cases?
smiles.notation: N[C@@H](COP(=O)(O)O)C(=O)O
tested.on: Cytochrome P450 2C19 (Homo sapiens) (UniProt P33261)
value.kind: activity change, negative = inhibition
result: 14.8% [at 23.6 µM] (inactive)
//
smiles.notation: CCCCCCCC/C=C\CCCCCCCC(=O)OCCCC
tested.on: Cytochrome P450 2C19 (Homo sapiens) (UniProt P33261)
value.kind: activity change, negative = inhibition
result: -24.4% [at 23.6 µM] (inactive)
//
smiles.notation: C[Si](C)=O
tested.on: Cytochrome P450 2C19 (Homo sapiens) (UniProt P33261)
value.kind: activity change, negative = inhibition
result: -11.8% [at 10.5 µM] (inactive)

**Q:** Any idea what its activity change, negative = inhibition is? The compound is `CN1CCN(CC(=O)N2c3ccccc3C(=O)Nc3cccnc32)CC1`
**A:** 8.9% [at 10.5 µM] (inactive)

**Q:** Any idea what its activity change, negative = inhibition is? The compound is `O=S(O)(O)=S`
**A:** -17.3% [at 10.5 µM] (inactive)

**Q:** Record request: activity change, negative = inhibition value, item `Oc1cn2c(n1)Nc1ccc(Cl)c(Cl)c1C2`
**A:** 3% [at 23.6 µM] (inactive)
